# Test system: RIPK1
# Study conditions: Compound Concentration (nM):1000;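 note: KINOMEscan scanMAX binding as percent activity remaining versus control; lower means stronger binding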
Test readout: Percent Control (%)
Output spec: scalar in %, unitless text.

O=C1Nc2ccc(C(=O)c3ccco3)cc2C1=Cc1cc(Cl)c(O)c(Cl)c1 [GW406108X]; 100
NS(=O)(=O)c1ccc(N/N=C2\C(=O)Nc3ccc(-c4cnco4)cc32)cc1; 76

Task item: Form field: reported Percent Control of COC(=O)Nc1nc2ccc(Oc3ccc(NC(=O)Nc4cc(C(F)(F)F)ccc4F)cc3)cc2s1.Cl [GW693917A]
Reply: 45

Task item: Form field: reported Percent Control of "O=C(Nc1n[nH]c2nc(-c3ccc(O)cc3)c(Br)cc12)C1CC1"
Reply: 100

###

# Test system: PDPK1
# Study conditions: Compound Concentration (nM):1000
Test readout: Percent Control (%)
Output spec: scalar in %, unitless text.

For orientation, consider the following solved cases.
NS(=O)(=O)c1ccc(N/N=C2\C(=O)Nc3ccc(C(=O)NCCc4c[nH]cn4)cc32)cc1 [GW300660X]; 97
COc1cc2ncn(-c3cc(O[C@H](C)c4ccccc4Cl)c(C(N)=O)s3)c2cc1OC [GSK237701A]; 90
Cc1cc(O)cc(C)c1/C=C/c1cncc(C(N)=O)c1 [GW435821X]; 96

Task item: Item COC(=O)Nc1nc2ccc(Oc3ccc(NC(=O)Nc4cc(C(F)(F)F)ccc4F)cc3)cc2s1.Cl [GW693917A] with PDPK1 - Percent Control?
Reply: 95

Task item: Item NS(=O)(=O)c1ccc(N/N=C2\C(=O)Nc3ccc(Cl)cc32)cc1 [GW280670X] with PDPK1 - Percent Control?
Reply: 100

Task item: Item COc1ccccc1-c1cc(/C=C2\C(=O)Nc3ncc(Br)cc32)cc(Br)c1O [GW442130X] with PDPK1 - Percent Control?
Reply: 89

Task item: Item CC1=C(C(=O)Nc2ccc3[nH]ncc3c2)C(c2ccc3ccccc3c2)CC(=O)N1 (stereo not drawn) [GSK270822A] with PDPK1 - Percent Control?
Reply: 100

Task item: Item CN(C)c1cc2c(Nc3ccc4c(cnn4Cc4ccccc4)c3)ncnc2cn1 [GW282974X] with PDPK1 - Percent Control?
Reply: 100

Task item: Item O=C1Nc2ccc(C(=O)c3ccco3)cc2C1=Cc1cc(Cl)c(O)c(Cl)c1 [GW406108X] with PDPK1 - Percent Control?
Reply: 97

###

# System: CDKL1
# Study conditions: Compound Concentration (nM):1000
Known Percent Control of a selection of molecules
Output spec: scalar in %, unitless text.

For orientation, consider the following solved cases.
CN(C)c1cc2c(Nc3ccc4c(cnn4Cc4ccccc4)c3)ncnc2cn1 [GW282974X]; 75
NS(=O)(=O)c1ccc(N/N=C2\C(=O)Nc3ccc(Cl)cc32)cc1 [GW280670X]; 96
COC(=O)Nc1nc2ccc(Oc3ccc(NC(=O)Nc4cc(C(F)(F)F)ccc4F)cc3)cc2s1.Cl [GW693917A]; 73
CCn1c(-c2nonc2N)nc2c(C#CC(C)(C)O)nc(OCCNC)cc21.Cl [GSK949675]; 90
CC1=C(C(=O)Nc2ccc3[nH]ncc3c2)C(c2ccc3ccccc3c2)CC(=O)N1 (centres unmarked) [GSK270822A]; 91
COc1cccc(-c2c[nH]c3c(N/N=C/c4ccncc4)ncnc23)c1 [GW814408X]; 15
O=C1Nc2ccc(C(=O)c3ccco3)cc2C1=Cc1cc(Cl)c(O)c(Cl)c1 [GW406108X]; 88

Pending molecule:
Task item: Form field: reported Percent Control of CC1=C(C(=O)Nc2ccc3[nH]ncc3c2)C(c2ccc(Cl)c(Cl)c2)CC(=O)N1 (centres unmarked) [GSK299115A]
Reply: 96
